Observed MIC, system T.Mentagroph. 5865.

Data request: Name the recorded MIC for Clc1ccc(C(Cn2ccnc2)OCc2ccc(Sc3ccccc3)cc2)c(Cl)c1 (stereo not shown) .
Data returned: 1.25 µg/mL

Data request: What MIC value was documented for this compound, Clc1ccc(COC(Cn2ccnc2)c2ccc(Cl)cc2Cl)c(Cl)c1 (stereo not shown) ?
Data returned: 0.31 µg/mL

Data request: // MIC lookup, key: Clc1ccc(C(Cn2ccnc2)OCc2ccc(-c3ccccc3)cc2)c(Cl)c1 (stereo not shown)
Data returned: 1.25 µg/mL

Data request: Request the reported MIC associated with `Clc1ccccc1C(c1ccccc1)(c1ccccc1)n1ccnc1`
Data returned: 0.62 µg/mL

* * *

Assign LD50 to each entry below.
- experiment.description: Acute toxicity per os in the mouse
- test.context: in vivo, po
Please respond with the number in mg/kg and leave the unit unwritten.

Data request: Which LD50 is listed for Clc1ccc(COC(Cn2ccnc2)c2ccc(Cl)cc2Cl)c(Cl)c1 (stereo not shown) [Miconazole] ?
Data returned: 870

Data request: Which measured LD50 value corresponds to Clc1ccccc1C(c1ccccc1)(c1ccccc1)n1ccnc1 [Clotrimazole] ?
Data returned: 880

Data request: // LD50 lookup, key: Clc1ccc(C(Cn2ccnc2)OCc2ccc(-c3ccccc3)cc2)c(Cl)c1 (stereo not shown) [R=C6 H5]
Data returned: 2400

Data request: Any idea what LD50 was measured for Clc1ccc(C(Cn2ccnc2)OCc2ccc(Sc3ccccc3)cc2)c(Cl)c1 (stereo not shown) [R=C6 H5 S] ?
Data returned: 3000
